measured_on: BACE1 enzyme (Homo sapiens)
Construct: endogenous in cells; washed 48,000 x g membrane pellet / cell homogenate
Sequence (P56817 46-501): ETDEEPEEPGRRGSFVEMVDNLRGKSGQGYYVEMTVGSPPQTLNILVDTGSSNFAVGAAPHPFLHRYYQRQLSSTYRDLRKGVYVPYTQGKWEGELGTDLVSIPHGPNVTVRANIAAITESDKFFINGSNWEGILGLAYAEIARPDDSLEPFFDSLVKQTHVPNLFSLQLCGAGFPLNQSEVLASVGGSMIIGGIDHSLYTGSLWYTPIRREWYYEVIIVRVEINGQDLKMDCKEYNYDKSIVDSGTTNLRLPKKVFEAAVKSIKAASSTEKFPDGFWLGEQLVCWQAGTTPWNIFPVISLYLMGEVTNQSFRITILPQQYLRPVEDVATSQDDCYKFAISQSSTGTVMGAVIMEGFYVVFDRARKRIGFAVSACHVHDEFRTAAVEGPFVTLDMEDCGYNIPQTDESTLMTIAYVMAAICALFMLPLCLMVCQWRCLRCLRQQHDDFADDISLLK
test_summary: Radioligand displacement assay with a radiolabeled BACE inhibitor
Type: binding
condition_description: HEK293-9B.A1 cell homogenate overexpressing BACE1, 1 nM radioligand, pH 5.0, 1.5 hr at 25° C.; read-out: Activity Rating (activity based on IC50 values)
readout_name: IC50

Illustrative cases are given below, each with its answer.
query: Field request: IC50 | item: COc1ccc2c(c1)[C@@H]1C[C@H]2OCC=CCC[C@H](N(C)S(=O)(=O)CCC(F)(F)F)C(=O)N[C@@H](CC(C)C)[C@H](O)CN1 [Example 70]
result: < 10 nM

query: Then this molecule: CCCC[C@H](C)C(=O)N(C)[C@H]1CC=CCOc2ccc(OC)cc2CNC[C@@H](O)[C@H](Cc2ccccc2)NC1=O [Example 59]
result: > 500 nM

query: What about CCCCCS(=O)(=O)N(C)[C@H]1CCCCO[C@H]2Cc3ccc(OC)cc3[C@H]2NC[C@@H](O)[C@H](Cc2ccccc2)NC1=O [Example 29] ?
result: 10 to 500 nM

query: Please give the result for CC(C)Oc1ccc2c(c1)[C@@H]1C[C@H]2OCC=CCCCC(=O)N[C@@H](Cc2cc(F)cc(F)c2)[C@H](O)CN1 [Example 78] too.
result: < 10 nM

query: Likewise for COc1ccc2c(c1)[C@@H]1CC2N(C)CCCCC[C@H](N(C)S(=O)(=O)CCC(F)(F)F)C(=O)N[C@@H](Cc2ccccc2)[C@H](O)CN1 [Example 56] ?
result: 10 to 500 nM

More entries:
query: What measured IC50 goes with COc1ccc2c(c1)[C@@H]1C[C@H]2COCC=CC[C@H](N(C)S(=O)(=O)CCC(F)(F)F)C(=O)N[C@@H](Cc2ccccc2)[C@H](O)CN1 (single isomer, unassigned; isomer a) [Example 35] ?
result: < 10 nM
